Each recorded value in this set is attributed to PubChem BioAssay (NCATS).

- Tested on: MKL-2
- Method notes: qHTS assay to identify novel small-molecules to repurpose for Merkel cell carcinoma treatment (AID 1296009); note: nearly all actives have a fitted effect of over 60% in size
- Details: MCC and control cell lines, CellTiter-Glo viability, 72 h; series mostly up to 46 µM
Inconclusive results are not listed. The source made the active and inactive calls. Calls come from the whole dose curve; as a rule, active = well fitted inhibition curve with a large enough effect; inconclusive = small, poorly fitted or top-dose-only effect; inactive = flat fitted curve, though single readings scatter.
Possible outcomes: active, inactive

INSERT INTO measurements (molecule, assigned_class) VALUES
  ('Cc1nnc2n1-c1sc(CCc3ccc(CC(C)C)cc3)cc1C(c1ccccc1Cl)=NC2C (stereo not given)', 'active'),
  ('CCOC(=O)NC(C)(C)Cc1ccc(Cl)cc1', 'inactive'),
  ('CCCOC(=O)Cc1ccc(OCC(=O)N(CC)CC)c(OC)c1', 'inactive'),
  ('COc1cc(C[C@@H](C)N)c(OC)cc1Br', 'inactive'),
  ('O=C(O)Cc1ccccc1', 'inactive'),
  ('CCOC(=O)C(c1c(O)c2ccccc2oc1=O)c1c(O)c2ccccc2oc1=O', 'inactive'),
  ('C[N+]1(C)[C@@H]2CC[C@H]1CC(OC(=O)C(CO)c1ccccc1)C2 (stereo not given in full)', 'inactive'),
  ('Cc1nnc2n1-c1sc(CCC(=O)N3CCOCC3)cc1C(c1ccccc1Cl)=NC2', 'inactive'),
  ('COP(=S)(OC)Oc1ccc(Sc2ccc(OP(=S)(OC)OC)cc2)cc1', 'inactive'),
  ('CCC1(c2ccccc2)CCC(=O)NC1=O (stereo not given)', 'inactive'),
  ('Oc1ccc2[nH]cc(CCCCN3CC=C(c4ccccc4)CC3)c2c1', 'active'),
  ('CC(Cc1ccc2c(c1)OCO2)NO (stereo not given)', 'inactive'),
  ('c1ccc2c(c1)Sc1ccccc1N2CC1CN2CCC1CC2 (stereo not given)', 'active'),
  ('NC(=O)OCCCc1ccccc1', 'inactive'),
  ('CCN(CC)C(C)C(=O)c1ccccc1 (stereo not given)', 'inactive');

----------
- Method notes: Cell Viability - LYMP2-013 (AID 970);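 note: cells exposed to compound for 24 h at 37 °C; nearly all actives have a fitted effect of over 55% in size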
- Details: LYMP2-013 lymphoblastoid cells viability; series mostly up to 92.2 µM
- Excerpt: NIH Chemical Genomics Center [NCGC] NIH Molecular Libraries Screening Centers Network [MLSCN] National Institutes of Environmental Health Sciences [NIEHS] National Toxicology Program [NTP] We have developed a 1536-well cell-based assay for quantitative high throughput screening (qHTS) against a number of cell lines to determine in vitro cytotoxicity of small molecules. […] 8. Detection; Luminescence; Viewlux plate reader […]
Records with an inconclusive call do not appear. Calls of active or inactive are those of the source. Calls come from the whole dose curve; as a rule, active = well fitted cell-killing curve with a large enough effect; inconclusive = small, poorly fitted or top-dose-only effect; inactive = flat fitted curve, though single readings scatter.
Possible outcomes: active, inactive

INSERT INTO results (given_smiles, assigned_class) VALUES
  ('Oc1c(Br)cc(Br)cc1Br', 'inactive'),
  ('O=C(CCl)c1ccc(Cl)cc1Cl', 'active'),
  ('CC[n+]1c(-c2ccccc2)c2cc(N)ccc2c2ccc(N)cc21', 'active'),
  ('C[C@@H]1C[C@@H]([C@H](O)CC2CC(=O)NC(=O)C2)C(=O)[C@@H](C)C1', 'active');

----------
- Method notes: qHTS of pediatric cancer cell lines to identify multiple opportunities for drug repurposing: Primary screen for NB-EBc1 cells (AID 1347095)
- Details: NB-EBc1 neuroblastoma viability, CellTiter-Glo luminescence, 48 h; series mostly up to 46 µM
Inconclusive results are not listed. Calls of active or inactive are those of the source. The call rests on the fitted dose curve; in most records, active means well fitted cell-killing curve with a large enough effect; inconclusive means small, poorly fitted or top-dose-only effect; inactive means no such curve, though single readings can be large or run the other way.
Possible outcomes: 1 (active), -1 (inactive)

INSERT INTO measurements (molecule, assigned_class) VALUES
  ('COP(=O)(OC)C(O)C(Cl)(Cl)Cl (stereo not given)', -1),
  ('c1ccc2c(c1)Sc1ccccc1N2CC1CN2CCC1CC2 (stereo not given)', -1),
  ('CC(Cc1ccccc1)NCCCCl (stereo not given)', -1),
  ('COc1cc(CC#N)cc(OC)c1OC', -1),
  ('C[C@H]1C(=O)O[C@@H]2CCN3CC=C(COC(=O)[C@](C)(O)[C@]1(C)O)[C@H]23', 1),
  ('C1CN2CCC1CC2', -1),
  ('COP(=S)(OC)Oc1ccc(Sc2ccc(OP(=S)(OC)OC)cc2)cc1', -1),
  ('C[C@]12CC[C@H]3[C@@H](CCC4=CC(=O)CC[C@@]43C)[C@@H]1CC[C@@H]2C(=O)O', -1),
  ('C=CCN1CC[C@]23CCCC[C@H]2[C@H]1Cc1ccc(O)cc13', -1),
  ('OC(O)C(Cl)(Cl)Cl', -1);

----------
- Details: Ebola virus entry assay, green fluorescence channel
Potency and affinity values are given separately.
Some compounds, each annotated with its measured efficacy.
Observation type: efficacy (%)

INSERT INTO results (compound, observation_type, number) VALUES
  ('Clc1ccc(CO/N=C(\Cn2ccnc2)c2ccc(Cl)cc2Cl)c(Cl)c1', 'efficacy', -155),
  ('Cc1nc2sccn2c(=O)c1CCN1CCC(=C(c2ccc(F)cc2)c2ccc(F)cc2)CC1', 'efficacy', 82.1),
  ('CCCCCCCCCCCCCCCCCCNC(=O)OC1CCN(C(=O)OC[C@H](COC(=O)N(Cc2cccc[n+]2CC)C(=O)c2ccccc2OC)OC)CC1', 'efficacy', -117),
  ('CC1(C)O[C@@H]2C[C@H]3[C@@H]4C[C@H](F)C5=CC(=O)C=C[C@]5(C)[C@H]4[C@@H](O)C[C@]3(C)[C@]2(C(=O)CO)O1', 'efficacy', 79.9),
  ('CNC(C)Cc1ccccc1OC (stereo not drawn)', 'efficacy', -13.2),
  ('C[N+]1(C)CCC(=C(c2ccccc2)c2ccccc2)CC1', 'efficacy', -9.5),
  ('CC(Cc1ccccc1)NCc1ccccc1Cl (stereo not drawn)', 'efficacy', -110),
  ('COc1cccc2c1C(=O)c1c(O)c3c(c(O)c1C2=O)C[C@@](O)(C(=O)CO)C[C@@H]3O[C@H]1C[C@H](N)[C@H](O[C@@H]2CCCCO2)[C@H](C)O1', 'efficacy', 15.3),
  ('CO[C@@H]1[C@@H](O[C@@H]2O[C@H](C)[C@@H](O[C@H]3C[C@@](C)(O)[C@@H](O)[C@H](C)O3)[C@H](N(C)C)[C@H]2O)[C@@H](CC=O)C[C@@H](C)[C@@H](O[C@@H]2CC[C@H](N(C)C)[C@@H](C)O2)/C=C/C=C/C[C@@H](C)OC(=O)C[C@H]1OC(C)=O', 'efficacy', 64.5),
  ('CSc1ccc(/C=C2/C(C)=C(CC(=O)O)c3cc(F)ccc32)cc1', 'efficacy', 33.8),
  ('COC[C@@H](c1ccc(C(F)(F)F)cc1)N1CCN(C2(C)CCN(C(=O)c3c(C)ncnc3C)CC2)C[C@H]1C', 'efficacy', 69.2),
  ('CCOCCOC(=O)/C=C/c1ccc(OC)cc1', 'efficacy', 19.6),
  ('CN(C)c1ccc(C(=C2C=CC(=[N+](C)C)C=C2)c2ccc(N(C)C)cc2)cc1', 'efficacy', -158);

----------
- Test system: CP265
- Method notes: qHTS profiling for inhibitors of Plasmodium falciparum proliferation (AID 504749); note: nearly all actives have a fitted effect of over 60% in size
- Details: P. falciparum in erythrocytes, SYBR Green DNA, 72 h; series mostly up to 28.7 µM
Results filed as inconclusive are left out. Activity calls are given as the source filed them. Calls come from the whole dose curve; as a rule, active = well fitted inhibition curve with a large enough effect; inconclusive = small, poorly fitted or top-dose-only effect; inactive = flat fitted curve, though single readings scatter.
Possible outcomes: active, inactive

INSERT INTO results (compound, measured_target, assigned_class) VALUES
  ('O=C(NC(=O)c1c(F)cccc1F)Nc1cc(Cl)c(OC(F)(F)C(F)C(F)(F)F)cc1Cl (stereo unspecified)', 'CP265', 'active'),
  ('NC(=O)CN1CCCC1=O', 'CP265', 'inactive'),
  ('CN(C)C(=S)SSC(=S)N(C)C', 'CP265', 'active'),
  ('NCc1cccnc1', 'CP265', 'inactive'),
  ('c1cc2c(c(N3CCNCC3)c1)OCCO2', 'CP265', 'inactive'),
  ('O=C(CCCN1CCC(n2c(=O)[nH]c3ccccc32)CC1)c1ccc(F)cc1', 'CP265', 'active');

----------
- Details: Ebola virus entry assay, green fluorescence channel
Results with a measured potency or affinity are listed apart.
Observation type: efficacy (%)

INSERT INTO results (molecule, observation_type, value_unit, number) VALUES
  ('O=C(O)c1ccc(OCCN2CCCCC2)cc1', 'efficacy', '%', -23.5),
  ('c1ccc(CNCCNCc2ccccc2)cc1', 'efficacy', '%', 55.2),
  ('O=C(O)c1cccnc1Nc1cccc(C(F)(F)F)c1', 'efficacy', '%', -25.4),
  ('Cc1[nH]c(=O)c(C#N)cc1-c1ccc2nccn2c1', 'efficacy', '%', -27),
  ('NS(=O)(=O)c1ccc(N2CCCCS2(=O)=O)cc1', 'efficacy', '%', -36.2),
  ('CN(C)CCOC(c1ccccc1)c1ccc(Br)cc1 (configuration not stated)', 'efficacy', '%', 63.8),
  ('CC(C)C(=O)OCc1cccc(OC(=O)[C@@H]2N3C(=O)[C@@H](NC(=O)Cc4ccccc4)[C@H]3SC2(C)C)c1', 'efficacy', '%', -28.9),
  ('CCCCCCCCOc1ccccc1C(=O)Nc1ccc(C(=O)OCC[N+](C)(CC)CC)cc1', 'efficacy', '%', -202),
  ('OC[C@@H](O)[C@H](O)[C@H](O)[C@@H](O)CO', 'efficacy', '%', -17.3),
  ('O=C(CCCN1CCN(c2ccc(F)cc2)CC1)NC1c2ccccc2CSc2ccccc21 (configuration not stated)', 'efficacy', '%', 64.4),
  ('O=C(c1cc(O)c(O)c(O)c1)c1ccc(O)c(O)c1O', 'efficacy', '%', 38.9),
  ('CCC1NC(=O)c2cc(S(N)(=O)=O)c(Cl)cc2N1 (configuration not stated)', 'efficacy', '%', -10.3),
  ('CC1(C)O[C@@H]2C[C@H]3[C@@H]4CCC5=CC(=O)CC[C@]5(C)[C@@]4(F)[C@@H](O)C[C@]3(C)[C@]2(C(=O)CCl)O1', 'efficacy', '%', 53.9),
  ('N/C(=N\N=C\c1ccc(Cl)cc1)N/N=C/c1ccc(Cl)cc1', 'efficacy', '%', -188),
  ('CCOP(=S)(OCC)O/N=C(\C#N)c1ccccc1', 'efficacy', '%', -42.7),
  ('O=c1[nH]c2ccccc2n1CCCN1CCN(C(c2ccccc2)c2ccccc2)CC1', 'efficacy', '%', -120),
  ('C[C@H](CN1CCOCC1)C(C(=O)N1CCCC1)(c1ccccc1)c1ccccc1', 'efficacy', '%', 92.9),
  ('O=C(O)c1cn(C2CC2)c2cc(Cl)c(F)cc2c1=O', 'efficacy', '%', 14.4),
  ('CC(C)(C)CC(=O)OCC(=O)[C@@]1(O)CC[C@H]2[C@@H]3CCC4=CC(=O)C=C[C@]4(C)[C@H]3[C@@H](O)C[C@@]21C', 'efficacy', '%', 47.7),
  ('Cc1cc(C(C)(C)C)c(O)c(C(C)(C)C)c1', 'efficacy', '%', -23),
  ('CC(=O)N(CC(O)CN(C(C)=O)c1c(I)c(C(=O)NCC(O)CO)c(I)c(C(=O)NCC(O)CO)c1I)c1c(I)c(C(=O)NCC(O)CO)c(I)c(C(=O)NCC(O)CO)c1I (configuration not stated)', 'efficacy', '%', -12.3),
  ('COC(=O)c1cc(S(N)(=O)=O)ccc1OC', 'efficacy', '%', -31.2),
  ('CC(C)(C)C(=O)OCOC(=O)[C@@H]1N2C(=O)[C@@H](NC(=O)[C@H](N)c3ccccc3)[C@H]2SC1(C)C', 'efficacy', '%', 35),
  ('CC(=O)SC[C@@H](Cc1ccccc1)C(=O)NCC(=O)OCc1ccccc1', 'efficacy', '%', 58),
  ('CCc1cc2cc(OC)c(OC)cc2c(Cc2ccccc2)n1', 'efficacy', '%', 32.1),
  ('COc1cc(O)c(C(=O)c2ccccc2)cc1S(=O)(=O)O', 'efficacy', '%', 11.7),
  ('O=C(N[C@@H]1N=C(c2ccccc2F)c2cccc3c2N(CC3)C1=O)c1cc2ccccc2[nH]1', 'efficacy', '%', -148),
  ('NC(N)=N/N=C/c1c(Cl)cccc1Cl', 'efficacy', '%', -12.6),
  ('O=c1[nH]c(=O)c2ccccc2o1', 'efficacy', '%', 15),
  ('CCC(=O)Nc1ccc(O)cc1', 'efficacy', '%', -18.3),
  ('C1CN2CCC1CC2', 'efficacy', '%', -16),
  ('CCO[C@H]1O[C@@H]2OC3(C)CC[C@H]4[C@H](C)CC[C@@H]([C@H]1C)[C@@]24OO3', 'efficacy', '%', 19.2);
